These data points were gathered from ChEMBL document CHEMBL1129601.

In this section we review reported remaining at 8 h values for a set of compounds.
assay: Solution Degradation Studies measured by compound unchanged at pH 6.4 = 50% water / 50% acetonitrile at 8 hours; format: ADME; settings: 50% water / 50% acetonitrile solution, read-out: Unchanged
Express the result in % but write the number alone.

smiles repr	outcome measure	observed
CC(C)c1cccc(C(C)C)c1OS(=O)(=O)NC(=O)Oc1c(C(C)(C)C)cccc1C(C)(C)C	remaining at 8 h	99

Now for another entry.
Value of measured remaining at 8 h for the entry `Cc1cccc(C)c1OC(=O)NS(=O)(=O)Oc1c(C(C)C)cccc1C(C)C` : 48

====

assay: Solution Degradation Studies measured by compound unchanged at pH 0.4=50% 1 M HCl/50% acetonitrile at 24 hours; type: ADME; details: 50% 1 M HCl / 50% acetonitrile solution, read-out: Unchanged
outcome measure: remaining at 24 h
Please answer in the form of a number followed by its unit of measurement.

Guide cases for remaining at 24 h, answers given:
smiles repr	observed
CC(C)c1cccc(C(C)C)c1OC(=O)NS(=O)(=O)Oc1c(C(C)C)cccc1C(C)C	23%
CC(C)c1cccc(C(C)C)c1OS(=O)(=O)NC(=O)Oc1c(C(C)(C)C)cccc1C(C)(C)C	97%

Now for the compound whose remaining at 24 h we want.
For this compound ( `Cc1cccc(C)c1OC(=O)NS(=O)(=O)Oc1c(C(C)C)cccc1C(C)C` ), measured remaining at 24 h is 5%
